tested on: surinam grass; assay: Test B pre/postemergence surinam grass; format: in vivo, Brachiaria decumbens; conditions: Preemergence, Rate 125 g/ha; scale of 0 to 10 where 0 is no effect and 10 is complete control
quantity measured: B. signalgrass plant response rating
Give bare numbers.

As a guide, the following entries are already answered.
>  <compound>
CC(C)N(C(=O)n1oc(=O)n(CNC(=O)c2ccccc2)c1=O)c1ccc(F)cc1F [Compound 619]

>  <subject of test>
surinam grass

>  <quantity measured>
B. signalgrass plant response rating

>  <result number>
0

$$$$
>  <compound>
CC(=O)NCn1c(=O)on(C(=O)N(c2ccccc2)C(C)C)c1=O [Compound 621]

>  <subject of test>
surinam grass

>  <quantity measured>
B. signalgrass plant response rating

>  <result number>
0

$$$$
>  <compound>
C=C(Cn1c(=O)on(C(=O)N(c2ccccc2)C(C)C)c1=O)C(C)(C)C [Compound 648]

>  <subject of test>
surinam grass

>  <quantity measured>
B. signalgrass plant response rating

>  <result number>
0

$$$$

Query: Give its B. signalgrass plant response rating value. Item: CC[C@@H](C)n1c(=O)on(C(=O)N(c2ccc(F)cc2F)C(C)C)c1=O [Compound 667]
Result: 5
